Recorded measurements of pKd, one per entry
- Target entity: T1, recombinant full length human tissue factor pathway inhibitor (TFPI) (human, UniProt P10646 29-304)
- T1 construct: also called TFPI1; human TFPI
- Test: SPR (Biacore), recombinant human TFPI
pKd: −log10 of the molar value.

Binder	pKd
HzTFPI4F36 HC-A60P (antibody, human IgG4 S228P, kappa, name in Kabat numbering, V domains shown, Mutated CDR-grafted heavy chain with wild type CDR-grafted light chain; Kabat numbering) VH: EVQLVESGGGLVKPGGSLRLSCAASGFTFSNYAMSWVRQAPGKGLEWVSTISRSGSYSYYPDSVKGRFTISRDNAKNSLYLQMNSLRAEDTAVYYCARLGGYDEGDAMDSWGQGTTVTVSS VL: DIVMTQTPLSLSVTPGQPASISCKSSQSLLESDGKTYLNWYLQKPGQSPQLLIYLVSILDSGVPDRFSGSGSGTDFTLKISRVEAEDVGVYYCLQATHFPQTFGGGTKVEIKR	8.66
HzTFPI4F36 HC-Y59F, A60P (antibody, human IgG4 S228P, kappa, name in Kabat numbering, V domains shown, Mutated CDR-grafted heavy chain with wild type CDR-grafted light chain; Kabat numbering) VH: EVQLVESGGGLVKPGGSLRLSCAASGFTFSNYAMSWVRQAPGKGLEWVSTISRSGSYSYFPDSVKGRFTISRDNAKNSLYLQMNSLRAEDTAVYYCARLGGYDEGDAMDSWGQGTTVTVSS VL: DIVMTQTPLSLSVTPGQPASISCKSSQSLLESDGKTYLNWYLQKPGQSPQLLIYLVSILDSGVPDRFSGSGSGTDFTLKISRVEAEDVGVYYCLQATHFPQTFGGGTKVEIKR	8.64
HzTFPI4F36 HC-FR3 (antibody, human IgG4 S228P, kappa, name in Kabat numbering, V domains shown, Mutated CDR-grafted heavy chain with wild type CDR-grafted light chain; Kabat numbering) VH: EVQLVESGGGLVKPGGSLRLSCAASGFTFSNYAMSWVRQAPGKGLEWVSTISRSGSYSYYADSVKGRFTISRDNAKNSLYLQMSSLRSEDTAMYYCARLGGYDEGDAMDSWGQGTTVTVSS VL: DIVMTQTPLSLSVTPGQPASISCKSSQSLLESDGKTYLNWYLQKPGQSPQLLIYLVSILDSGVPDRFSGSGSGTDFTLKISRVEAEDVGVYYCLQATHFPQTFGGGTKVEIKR	8.28
